Each entry below carries its reported EC50.
- Tested on: H9
- assay: Concentration required to inhibit HIV-1 replication by 50% in acutely infected H9 lymphocytes
- Assay type: functional, cell-based
- experimental-setup: Homo sapiens
Units required after the number.

Worked cases, EC50 given:
- compound: "Cc1cc(=O)sc2c3c(ccc12)OC(C)(C)[C@H](OC(=O)C12CCC(C)(C(=O)O1)C2(C)C)[C@@H]3OC(=O)C12CCC(C)(C(=O)O1)C2(C)C (stereo partly drawn)"
  measured-attribute: "EC50"
  result: "120000 nM"
- compound: "Cc1cn([C@H]2C[C@H](N=[N+]=[N-])[C@@H](CO)O2)c(=O)[nH]c1=O [ZIDOVUDINE]"
  measured-attribute: "EC50"
  result: "45 nM"

Next:
What EC50 value was documented for this compound, CC1(C)Oc2ccc3ccc(=O)oc3c2[C@@H](OC(=O)C23CCC(C)(C(=O)O2)C3(C)C)[C@H]1OC(=O)C12CCC(C)(C(=O)O1)C2(C)C (stereo partly drawn) ?
0.256 nM
